- assayDetails: gradient 5% acetonitrile 3 min, to 50% in 2 min, to 85% in 15 min, held 3 min, 100 µL/min
- conditionContext: column: Zorbax Extend-C18 2.1 x 50 mm; eluents: water / acetonitrile, 0.1% formic acid
measuredAttribute: RP-LC retention time (s)

Use these answered entries as a reference point.
molecule	RP-LC retention time [s]
Cc1ccc(-c2cn3c(CC(=O)Nc4ccc5c(c4)OCCO5)csc3n2)cc1C	806
CCn1cc(-c2ccncc2)cc1C(=O)NCc1ccc2c(c1)OCO2	641
COc1cccc(N2CCN(c3ccc(-c4nc(-c5cccc(F)c5)no4)cn3)CC2)c1	1310
Cc1nn(-c2ccccc2)cc1C(=O)N1CCC(CC(=O)N2CCOCC2)CC1	669
CCOc1ccc(CNC(=S)Nc2ccc3nc(N4CCN(C)CC4)cc(C)c3c2)cc1	614
Cc1nn2c(S(=O)(=O)N3CCCCC3)c(C)nc2s1	792

P: CCC(C)Nc1nc(-c2ccc(C)cc2)nnc1C (stereo not given)
Q: CCOc1ccccc1C(=O)Nc1ccc2c(c1)N(CCOC)CCC2
Prompt line: When their RP-LC retention time values are compared, which is larger, P or Q ? Write the label of whichever entry you select.
Response line: Q

###

- assayDetails: gradient 5% acetonitrile 3 min, to 50% in 2 min, to 85% in 15 min, held 3 min, 100 µL/min
- conditionContext: column: Zorbax Extend-C18 2.1 x 50 mm; eluents: water / acetonitrile, 0.1% formic acid
measuredAttribute: RP-LC retention time (s)

compound	u	RP-LC retention time
Cn1cc(C2c3ccccc3C(=O)N2CC(N)=O)c2ccccc21 (stereo not given)	s	696
CS(=O)(=O)N1CCCc2cc(C(=O)NCCCN3CCOCC3)ccc21	s	585
O=C(Nc1cnc(N2CCN(CCOc3ccc(Cl)cc3)CC2)c(C(=O)O)c1)c1ccc(F)cc1	s	694
CC1=C(c2ccccc2)S(=O)(=O)N=C1N1CCC(NC(=O)NCC(C)C)CC1	s	790
CCn1cnc(S(=O)(=O)N2CCCC(C(=O)NCCc3ccccc3)C2)c1 (stereo not given)	s	702
O=c1ccc(-c2ccc(F)cc2)nn1Cc1nc(-c2ccc(F)cc2)no1	s	952
Cc1ccc(C)c(CNC(=O)c2cccn2Cc2noc(C)n2)c1	s	893
CN1CCCN(C(=O)CCc2ccc3c(ccn3C)c2)CC1	s	605
Cc1ccc(CNC(=O)Cn2ccc3c(SCc4ccc(F)cc4)nccc32)o1	s	735
CCOc1ccccc1OCc1nn2c(-c3ccoc3C)nnc2s1	s	970
Cc1cccc(-c2noc(-c3cc(N4CCN(C)CC4)nc4ccccc34)n2)c1	s	837
Cc1nc(NC(=O)c2ccccc2)n[nH]1	s	583
O=C(Cn1ncc2c(N3CCN(c4ccccn4)CC3)ncnc21)Nc1ccc(Cl)cc1	s	643
O=C(NCC(c1cccnc1)c1c[nH]c2ccccc12)Nc1ccc(Br)cc1 (stereo not given)	s	724
COc1ccc(CCNC(=O)c2ccc3c(c2)N(C)C(=O)C2CCCCN32)cc1OC (stereo not given)	s	774
O=C(CC1CCN(C(=O)NCc2ccccc2)CC1)NCc1cccc(F)c1	s	741
COc1cccc(OCC2c3ccsc3CCN2C(=O)CN(C(=O)NC(C)C)C2CC2)c1 (stereo not given)	s	918
COc1cccc(NC(=O)c2cn(CC3CCCO3)cc3c(=O)n(-c4ccccc4)nc2-3)c1 (stereo not given)	s	997
CCCc1ccc(S(=O)(=O)N2CCC(c3nc4ccncc4n3CCOC)C2)cc1 (stereo not given)	s	610
NC(=O)c1ccc(NC(=O)CSC2=Nc3ccccc3N=C(c3ccccn3)C2)cc1	s	738

###

- assayDetails: gradient 5% acetonitrile 3 min, to 50% in 2 min, to 85% in 15 min, held 3 min, 100 µL/min
- conditionContext: column: Zorbax Extend-C18 2.1 x 50 mm; eluents: water / acetonitrile, 0.1% formic acid
measuredAttribute: RP-LC retention time (s)

Study these solved cases before continuing.
compound	RP-LC retention time / s
Cc1[nH]c(C(=O)N2CCCC(C(=O)NCCCN3CCOCC3)C2)c(C)c1C (centres undefined)	597
Cc1cnc(C)n1C1CCN(C(=O)c2cccn2C)C1 (centres undefined)	580
O=C(NCCc1nc(-c2ccc3c(c2)OCO3)n[nH]1)c1cc(F)ccc1Cl	660

I: CCC(C(=O)c1ccccc1)n1c(N2CCOCC2)nc2c1c(=O)n(C)c(=O)n2C (centres undefined)
II: CCOc1ccc(-c2csc(NC(=O)CCCc3nc(-c4ccccc4Cl)no3)n2)cc1
Prompt line: From the items above, decide which of I and II has the lower RP-LC retention time reading. Kindly state the label of the option you pick.
Response line: I

###

- assayDetails: gradient 5% acetonitrile 3 min, to 50% in 2 min, to 85% in 15 min, held 3 min, 100 µL/min
- conditionContext: column: Zorbax Extend-C18 2.1 x 50 mm; eluents: water / acetonitrile, 0.1% formic acid
measuredAttribute: RP-LC retention time (s)

compound	quantitativeReadout
O=S(=O)(Cc1ccccc1)N1CCC(c2noc(-c3cnccn3)n2)C1 (centres undefined)	797
COCCN(CC(=O)N1CCc2sccc2C1COc1ccccc1OC)C(C)=O (centres undefined)	757
Cc1ccc(NS(=O)(=O)c2cc(-c3[nH]ncc3C(=O)N3CCCC3)oc2C)c(Cl)c1	741
Cc1ccc(Nc2c(C(=O)N3CCC(C)CC3)cnc3nc(C)ccc23)c(C)c1	674
Cc1ccc(-n2c(N3CCCC(C(=O)NCc4ccncc4)C3)nc3ccsc3c2=O)cc1 (centres undefined)	627
Cc1ccc2[nH]cc(CCN3CC(C(=O)Nc4ccc(Br)cc4)CC3=O)c2c1 (centres undefined)	916
O=S(=O)(c1ccc2nncn2c1)N(Cc1cc(F)cc(F)c1)c1cccc(F)c1	895
Cc1ccc(NC(=O)N2CCCC(Cn3cnc4cccnc43)C2)cc1 (centres undefined)	667
Cc1ccc(CNC(=O)C2(C)Cn3nc(C)cc3C(=O)N2c2ccc3c(c2)OCCO3)cc1 (centres undefined)	809

###

- assayDetails: gradient 5% acetonitrile 3 min, to 50% in 2 min, to 85% in 15 min, held 3 min, 100 µL/min
- conditionContext: column: Zorbax Extend-C18 2.1 x 50 mm; eluents: water / acetonitrile, 0.1% formic acid
measuredAttribute: RP-LC retention time (s)

Solved entries (count: 5):
molecule	RP-LC retention time, s
CCN(Cc1ccccc1)Cc1nc(-c2ccc(N3CCCC(C)C3)nc2)no1 (stereo not given)	1020
Nc1nc(N2CCOCC2)nc2ccccc12	572
O=C1CCc2cc(S(=O)(=O)N3CCCC3C(=O)N3CCN(c4ccccc4)CC3)ccc2N1 (stereo not given)	713
CCc1ccc(NC(=O)CSc2ccc(N3CCCC(C(=O)NC4CC4)C3)nn2)cc1 (stereo not given)	695
Cc1ccccc1NC(=O)Cn1ncc2c(c1=O)N(CC1CC1)C(=O)CS2	797

I: CC1(C(=O)NC2CCCCCCC2)CN(S(C)(=O)=O)CC(=O)N1c1ccc(Cl)cc1 (stereo not given)
II: Cc1cc(C)n(CCNC(=O)c2ccc(N3CCOCC3)nn2)n1
Prompt line: Decide: I or II , by lowest recorded RP-LC retention time. Lab note: record the label of whichever item you select.
Response line: II

I: CCn1ncc(Cl)c1C(=O)N1CCCC1c1cccc(F)c1 (stereo not given)
II: CC(=O)NCc1c(-c2ccc(Cl)cc2)nc2n1CCS2
Prompt line: # min-compare on RP-LC retention time between I and II API: response body contains the label of the selected item.
Response line: II
(II: 568 s, I: 922 s)

###

- assayDetails: gradient 5% acetonitrile 3 min, to 50% in 2 min, to 85% in 15 min, held 3 min, 100 µL/min
- conditionContext: column: Zorbax Extend-C18 2.1 x 50 mm; eluents: water / acetonitrile, 0.1% formic acid
measuredAttribute: RP-LC retention time (s)

// below: answered compounds
compound	u	RP-LC retention time
COc1cccc(-c2nc(-c3cccc(-c4ccnn4C)c3)no2)c1	s	1120
Cc1nc2cc(NC(=O)c3cn(C)nn3)ccc2s1	s	629
O=C(c1cc(-c2ccncc2)n[nH]1)N1CCC(C(=O)N2CCN(c3ncccn3)CC2)CC1	s	575
COC(=O)c1ccccc1NC(=O)NCc1nc(-c2ccccc2)oc1C	s	964
Cc1[nH]c(C)c(S(=O)(=O)N2CCC(C(=O)NCc3cccs3)CC2)c1C(=O)N1CCCC1	s	664

1: CNC(=O)c1ccc(Nc2c(-c3ccc(OC)cc3)nc3cnccn23)cc1
2: O=C1CC(C(=O)N2CCc3ccccc32)CN1CCc1c[nH]c2ccc(F)cc12 (centres undefined)
Prompt line: // compare: 1 vs 2 , metric RP-LC retention time, want the smaller Mark your answer with the label of the selected entry.
Response line: 1

I: Nc1nc(N2CCN(c3ccccc3)CC2)ncc1C(=O)Nc1ccccc1
II: CCOC(=O)c1noc2ncnc(NC3CCCc4ccccc43)c12 (centres undefined)
Prompt line: Looking at recorded values for RP-LC retention time, does I or II come in lower? Your answer should be the label attached to the chosen record.
Response line: I
(I: 784 s, II: 1120 s)

a: Cc1ccc(-c2ccc(=O)n(Cc3nc(-c4ccc5c(c4)OCO5)no3)n2)cc1
b: CCOc1ccc(NC(=O)c2cc(=O)c3cc(Cl)c(C)cc3o2)c2cccnc12
Prompt line: # min-compare on RP-LC retention time between a and b Respond using the label that marks the chosen record.
Response line: b
(b: 714 s, a: 1020 s)

Reference source: the METLIN SMRT retention time set (Domingo-Almenara et al. 2019)
